I'd be grateful if you could share measured bioavailability for these entries.
assay: Oral bioavailability in dog; assay type: ADME, organism-based, Canis lupus familiaris; details: in vivo
Express your answer in %, writing the number without its unit.

Record request: bioavailability value, item CCn1cnc2c(-c3ccc(F)c(-c4cc5c(cc4OC)C(=O)N(C)C5)c3)cnnc21
43

Same read-out for CCn1cnc2c(-c3ccc(F)c(-c4ccc(S(=O)(=O)CC)cc4OC)c3)cnnc21 ?
130

====

Exercise: state measured solubility for each of the compounds provided.
assay: Solubility of the compound at pH 6.5; assay type: physicochemical; conditions: buffer

Fill in the blank: the reported solubility of CCn1cnc2c(-c3ccc(F)c(-c4ccc(S(=O)(=O)CC)cc4OC)c3)cnnc21 is ____.
95 µM

Also CCn1cnc2c(-c3ccc(F)c(-c4cc5c(cc4OC)C(=O)N(C)C5)c3)cnnc21 , if possible.
15 µM

====

experiment: Lipophilicity, log D of the compound; type: physicochemical; settings: octanol/water
Decision: logD >= 3 yields condition met, all other cases yield condition not met.

// inclusive: logD at least 3? input: CCn1cnc2c(-c3ccc(F)c(-c4ccc5c(c4)CN(C)C5=O)c3)cnnc21
condition not met

Let us now turn to CCn1cnc2c(-c3ccc(F)c(-c4ccc(S(=O)(=O)CC)cc4Cl)c3)cnnc21
condition met

Then this compound: CCn1cnc2c(-c3ccc(F)c(OCc4ccccn4)c3)cnnc21
condition not met

Next up: CCn1cnc2c(-c3ccc(F)c(-c4ccc(S(=O)(=O)CC)cc4F)c3)cnnc21
condition not met

Continue with CCOc1cc(S(=O)(=O)CC)ccc1-c1cc(-c2cnnc3c2ncn3CC)ccc1F
condition met

Now consider CCS(=O)(=O)c1ccc(-c2cc(-c3cnnc4c(OC)cnn34)ccc2F)cc1 and answer again.
condition not met

Can you check CCn1cnc2c(-c3ccc(F)c(Oc4cnc(C#N)nc4)c3)cnnc21 next?
condition not met

Again, but for CC(C)n1cnc2c(-c3ccc(F)c(Oc4ccc(C#N)cn4)c3)cnnc21
condition not met

Now try CCn1cnc2c(-c3ccc(F)c(-c4cc5c(cc4OC)C(=O)N(C)C5)c3)cnnc21 .
condition not met

Another compound to check: CCn1cnc2c(-c3ccnc(OC)c3)cnnc21
condition not met

Same for CCn1cnc2c(-c3ccnc(Oc4cccc(S(=O)(=O)CC)c4)c3)cnnc21
condition not met

Likewise for CCc1cnn2c(-c3ccc(F)c(-c4ccc(S(=O)(=O)CC)cc4)c3)ccnc12 ?
condition met

Next compound: Cc1cc(-c2cc(-c3cnnc4c3ncn4C(C)C)ccc2F)ccn1
condition met

Further, for CCn1cnc2c(-c3ccc(F)c(Oc4cccc(S(=O)(=O)CC)c4)c3)cnnc21 ?
condition not met

Then what about the compound CCn1cnc2c(-c3ccc(F)c(-c4ccc5c(c4)C(=O)N(C)C5)c3)cnnc21 ?
condition not met

Same question for Cc1cc(-c2cc(-c3cnnc4c3ncn4C3CC3)ccc2F)ccn1 please.
condition not met

Subsequent entry: CCn1cnc2c(-c3ccc(F)c(-c4ccc(S(=O)(=O)CC)cc4)c3)cnnc21
condition not met

Further, for CCn1cnc2c(-c3ccc(F)c(-c4ccc(S(=O)(=O)C5CC5)cc4OC)c3)cnnc21 ?
condition not met

Another compound: CCn1cnc2c(-c3ccc(F)c(-c4ccc(S(=O)(=O)CC)cc4OC)c3)cnnc21 [DARIGABAT]
condition not met

How about CCn1cnc2c(-c3ccc(F)c(Oc4ccnc(C)c4)c3)cnnc21 ?
condition not met

====

experiment: Permeability in RRCK cells; assay type: ADME, cell-based, Canis lupus familiaris, MDCKII-LE; conditions: dog, MDCK; read-out: permeability
recorded_endpoint: Papp (×10⁻⁶ cm/s)
Field format: number, assumed ×10⁻⁶ cm/s, no unit text.

# get_value(readout='Papp', item= CCn1cnc2c(-c3ccc(F)c(-c4ccc(S(=O)(=O)CC)cc4OC)c3)cnnc21 [DARIGABAT] )
17

Can you handle CCn1cnc2c(-c3ccc(F)c(-c4cc5c(cc4OC)C(=O)N(C)C5)c3)cnnc21 next?
21

====

assay: Volume of distribution at steady state in rat; format: ADME; conditions: in vivo, read-out: Vdss
recorded_endpoint: Vd (L/kg)
Entry rule: numbers only, all in L/kg.

# input compound: CCn1cnc2c(-c3ccc(F)c(-c4ccc(S(=O)(=O)CC)cc4OC)c3)cnnc21 ; wanted: its Vd
2.1

How about CCn1cnc2c(-c3ccc(F)c(-c4cc5c(cc4OC)C(=O)N(C)C5)c3)cnnc21 ?
0.55

====

experiment: Oral bioavailability in rat; format: ADME, organism-based; conditions: in vivo
recorded_endpoint: bioavailability (%)
Hi! Could you send only the number? It should be in %, unit omitted.

Suppose we examine the molecule CCn1cnc2c(-c3ccc(F)c(-c4cc5c(cc4OC)C(=O)N(C)C5)c3)cnnc21 ; what bioavailability value has been reported?
76

Do the same for CCn1cnc2c(-c3ccc(F)c(-c4ccc(S(=O)(=O)CC)cc4OC)c3)cnnc21 please
99

====

experiment: Lipophilicity, log D of the compound; assay type: physicochemical; conditions: octanol/water
recorded_endpoint: logD
The response must contain the number and no unit.

Name the reported logD value associated with the compound CCn1cnc2c(-c3ccc(F)c(-c4ccc(S(=O)(=O)C(C)C)cc4OC)c3)cnnc21
3

CCn1cnc2c(-c3ccc(F)c(-c4ccc(S(=O)(=O)C5COC5)cc4OC)c3)cnnc21 , same question.
2.2

Again, but for CCc1cnn2c(-c3ccc(F)c(-c4ccc(S(=O)(=O)CC)cc4)c3)cnnc12
3.5

Same thing, different compound: CCn1cnc2c(-c3ccnc(Oc4ccccc4)c3)cnnc21
2.6

Do the same for CCn1cnc2c(-c3ccc(F)c(Oc4ccc(C#N)cn4)c3)cnnc21 please
2.3

Also N#Cc1ccc(Oc2cc(-c3cnnc4c3ncn4C3CC3)ccc2F)nc1 , if possible.
2.3

Same thing, different compound: CCn1cnc2c(-c3ccc(F)c(-c4ccc(S(C)(=O)=O)cc4OC)c3)cnnc21
2.5

# iterate: CCn1cnc2c(-c3ccc(Cl)c(-c4ccc(S(=O)(=O)CC)cc4OC)c3)cnnc21
3.1

Please do the same for CCn1cnc2c(-c3ccc(F)c(-c4cccc(C(=O)NC)c4)c3)cnnc21 as well.
2.8

Then what about the compound CC(=O)N1CC(Oc2cc(-c3cnnc4c3ncn4C(C)C)ccc2F)C1 ?
1.6

====

Assignment: determine reported Vd for the given molecules.
experiment: Volume of distribution at steady state in dog; format: ADME, Canis lupus familiaris; conditions: in vivo, read-out: Vdss
Report the value in L/kg with no unit label.

Data request, read-out Vd, for CCn1cnc2c(-c3ccc(F)c(-c4ccc(S(=O)(=O)CC)cc4OC)c3)cnnc21
3.4

Let us now turn to CCn1cnc2c(-c3ccc(F)c(-c4cc5c(cc4OC)C(=O)N(C)C5)c3)cnnc21
2.61

====

Task for the reader: assign each of the following compounds its reported logD.
test: Lipophilicity, log D of the compound; type: physicochemical; conditions: octanol/water
Please state the value as a number alone, without comment.

// returns reported logD for input CCn1nnc2c(-c3ccc(F)c(-c4ccc(S(=O)(=O)CC)cc4)c3)cnnc21
3.3

Another: CCn1cnc2c(-c3ccc(F)c(-c4cccnc4)c3)cnnc21
2.6

Now try CCn1cnc2c(-c3ccc(F)c(-c4ccc(C(=O)N(C)C)cc4)c3)cnnc21 .
2.5
